# Tested on: HOP-62 NSCLC
# assay-name: NCI tumour cell line growth inhibition, 48 h
recorded-metric: TGI

INSERT INTO results (compound, recorded_metric, measurement) VALUES
  ('COc1ccc2c(c1)c(-c1nc(-c3c[nH]c4ncccc34)cs1)cn2CCCCN1CCCCC1', 'TGI', '2.95 µM'),
  ('O=C1c2ccc3c4ccccc4n(-c4ccccc4)c3c2C(=O)N1c1ccc(Cl)cc1', 'TGI', '> 100 µM'),
  ('COc1ccc(-c2ccc(NNC(=O)c3ccc(F)cc3)nn2)cc1OC', 'TGI', '> 100 µM'),
  ('COc1cc(/C=C/C(=O)C(C(=O)/C=C/c2ccc(OC(=O)CCNC34CC5CC(CC(C5)C3)C4)c(OC)c2)C(=O)CCNC23CC4CC(CC(C4)C2)C3)ccc1OC(=O)CCNC12CC3CC(CC(C3)C1)C2 (stereo not given)', 'TGI', '> 100 µM'),
  ('Cn1c(=S)c2[nH]c(SCCCc3ccccc3)nc2n(C)c1=O', 'TGI', '> 100 µM');

Dear reader, for each entry below, please note its TGI.
1. c1ccc2c(c1)OCCOCCOc1ccccc1OCCO2
2. C[P+](C)(C)c1ccccc1
3. COc1cc(C(=O)O[C@H](C(N)=O)[C@]2(C)CO2)c2cccc(C)c2c1
4. Cn1nnnc1SC(F)(F)c1nc2ccccc2o1
5. NC(=S)N/N=C1\CCCC\C1=C/c1ccccc1

Solution:
1: > 100 µM; 2: > 100 µM; 3: 5.35 µM; 4: > 100 µM; 5: > 100 µM

====

I'd appreciate it if you could supply TGI values for the items below.
# Test system: T-47D breast
# assay-name: NCI tumour cell line growth inhibition, 48 h

INSERT INTO assay_data (line_notation, recorded_metric, measurement) VALUES
  ('Cc1[nH]n(-c2nc(O)c(-c3ccccc3)c(=O)[nH]2)c(=O)c1CCO', 'TGI', '> 100 µM'),
  ('CC1(C)OP(=O)(O)C=C1Sc1ccc([N+](=O)[O-])cc1[N+](=O)[O-]', 'TGI', '> 100 µM'),
  ('Cc1cc(NCCCCNc2ccnc3cc(Cl)ccc23)nc(Nc2ccc(C(=O)N3CCCCC3)cc2)n1', 'TGI', '5.94 µM'),
  ('Cc1ccc(S(=O)(=O)C2=C(C(C)C)N=NC2(C)C)cc1', 'TGI', '> 100 µM');

Measured TGI for this entry `CCC(=O)OCN(C)c1nc(N(C)COC(=O)CC)nc(N(C)COC(=O)CC)n1` on T-47D breast: > 100 µM

====

# Test system: PC-3 prostate
# assay-name: NCI tumour cell line growth inhibition, 48 h
recorded-metric: TGI

INSERT INTO assay_data (molecule, study_target, measurement) VALUES
  ('COc1cc(/C=C/C(=O)Oc2ccccc2)ccc1C(=O)O/C=C/c1ccccc1', 'PC-3 prostate', '> 100 µM'),
  ('COc1cc(/C=C/C(=O)C(C(=O)/C=C/c2ccc(OC(=O)CCNC34CC5CC(CC(C5)C3)C4)c(OC)c2)C(=O)CCNC23CC4CC(CC(C4)C2)C3)ccc1OC(=O)CCNC12CC3CC(CC(C3)C1)C2 (stereo not given)', 'PC-3 prostate', '25.1 µM'),
  ('O=c1cc(CF)[nH]c(=S)[nH]1', 'PC-3 prostate', '> 100 µM'),
  ('Cc1sc2c(c1C)C(c1ccc(Cl)cc1)=N[C@@H](CC(=O)Nc1ccc(OCCOCCOCCOCCNc3cccc4c3C(=O)N(C3CCC(=O)NC3=O)C4=O)cc1)c1nnc(C)n1-2 (stereo not given in full)', 'PC-3 prostate', '> 100 µM');

Next item in the queue.
Note to self: TGI recorded for `Cc1n[n+](Cc2ccccc2)c2sc(N)nn12` was > 100 µM

====

# System: BT-549 breast
# assay-name: NCI tumour cell line growth inhibition, 48 h; in the data active = GI50 below about 0.43 µM; inactive = the rest
Use one of these outcomes when replying: active, inactive

Some solved entries appear below for comparison.
INSERT INTO results (compound, assigned_label) VALUES
  ('CNC(C)[C@H]1CCC2C3CC=C4C(=O)[C@@H](NC(=O)C=C(C)C)CC[C@]4(C)C3CC[C@@]21C (some centres undefined)', 'inactive'),
  ('COc1ccc(-c2ccc(NNC(=O)c3ccc(F)cc3)nn2)cc1OC', 'inactive'),
  ('CCOC(=O)c1sc(NC(=O)COc2cccc(/C=C3\CCc4cc(OC)ccc4C3=O)c2)nc1C', 'inactive'),
  ('COc1ccc(-c2cc(Nc3ccnc(N4CCOCC4)n3)on2)cc1', 'inactive'),
  ('CN1C(NNC(=O)c2cccnc2)=NS(=O)(=O)c2cc(Cl)ccc21', 'inactive');

# ---- query compound ----
Exercise: Given `COc1ccc(-c2nn(-c3cccc(Cl)c3)cc2-c2nc(N)[nH]c(=O)c2C#N)cc1` , state the outcome it received in this test.
Solution: inactive

====

Would you mind telling me the reported GI50 of each entry?
# Test system: M14 melanoma
# assay-name: NCI tumour cell line growth inhibition, 48 h

INSERT INTO measurements (compound, measurement) VALUES
  ('Cc1sc2c(c1C)C(c1ccc(Cl)cc1)=N[C@@H](CC(=O)Nc1ccc(OCCOCCOCCOCCNc3cccc4c3C(=O)N(C3CCC(=O)NC3=O)C4=O)cc1)c1nnc(C)n1-2 (stereo not given in full)', '0.388 µM'),
  ('COc1ccc(-c2nn(-c3cccc(Cl)c3)cc2-c2nc(N)[nH]c(=O)c2C#N)cc1', '3.25 µM'),
  ('NC(=O)CNc1ccc([As]=[As]c2ccc(NCC(N)=O)cc2)cc1 (stereo not given)', '5.02 µM'),
  ('COc1cc2c3c(n(CCCN(C)CCO)c(=O)c2cc1OC)-c1cc2c(cc1C3=O)OCO2', '1.48 µM'),
  ('NCCCn1c2c(c3ccccc3c1=O)C(=O)c1ccccc1-2', '0.628 µM');

# per-item lookup of GI50; items listed below
1. Clc1nc(Cl)c2ncn(Cc3ccccc3Cn3cnc4c(Cl)nc(Cl)nc43)c2n1
2. O=C(NNc1cnccn1)c1nc2cc(F)ccc2n2cccc12
3. C=CCn1c(SCC(=O)Nc2ccc(C(=O)/C=C/c3cc(OC)c(OC)c(OC)c3)cc2)nnc1-c1ccc(OC)cc1
4. CN(C)CCNc1nc2ccccc2c2c(=O)c3cc(F)ccc3sc12

Solution:
["5.13 µM", "0.34 µM", "0.404 µM", "1.9 µM"]

Working through the 6 compounds below one at a time, give GI50 for each.
1. COc1ccc(-c2noc(N)c2-c2cc(OC)c3c(c2)OCO3)cc1
2. COc1cc(C(=O)O[C@H](C(N)=O)[C@]2(C)CO2)c2cccc(C)c2c1
3. COc1ccc(-c2cc(-c3ccc(Nc4ccnc5cc(Cl)ccc45)cc3)nc(N3CCOCC3)n2)cc1
4. O=C1c2ccccc2C(=O)c2c(NCCN=Cc3ccccc3O)cccc21
5. COC(=O)[C@]12CC[C@@H](C)[C@H](C)[C@@H]1C1=CC[C@@H]3[C@@]4(C)C(C=O)=C[C@@](C)(COC(=O)c5ccco5)[C@@H]4[C@H](O)C[C@@]3(C)[C@]1(C)CC2
6. CNC(C)[C@H]1CCC2C3CC=C4C(=O)[C@@H](NC(=O)C=C(C)C)CC[C@]4(C)C3CC[C@@]21C (stereo not given in full)

Solution:
1: 1.3 µM; 2: 2.13 µM; 3: 2.81 µM; 4: 7.44 µM; 5: 0.305 µM; 6: 1.72 µM

====

# Tested on: A549 NSCLC
# assay-name: NCI tumour cell line growth inhibition, 48 h; in the data active = GI50 below about 0.43 µM; inactive = the rest
// one of active, inactive, no free text

Would you please look over these solved cases?
INSERT INTO assay_data (line_notation, assigned_label) VALUES
  ('CC1(C)N=C(N)N=C(N)N1c1cccc(OCCOc2cccc([N+](=O)[O-])c2)c1', 'inactive'),
  ('NCCCOc1cc2ccccc2cc1C(=O)NCCCOc1cc2ccccc2cc1C(=O)Nc1ccc(Cl)cc1O', 'active');

Now look at this entry.
Exercise: What did this assay record as the result for `Cc1cc(NCCCCNc2ccnc3cc(Cl)ccc23)nc(Nc2ccc(C(=O)N3CCCCC3)cc2)n1` ?
Solution: inactive

====

Give measured TGI for each item. Keep answers brief.
# System: OVCAR-8 ovarian
# assay-name: NCI tumour cell line growth inhibition, 48 h

INSERT INTO assay_data (line_notation, measurement) VALUES
  ('CCCCCCc1cc2cc(C(=O)Nc3ccc(F)cc3)c(=N)oc2cc1O', '3.75 µM'),
  ('COC(=O)[C@@H](NC(=O)N(Cc1ccccc1)C[C@H](CC(C)C)NC(=O)[C@@H](NC(=O)OC(C)(C)C)C(C)C)C(C)C', '> 100 µM'),
  ('N/C(=N\S(=O)(=O)c1ccc(-c2ncccc2C(F)(F)F)s1)Nc1ccc(Cl)cc1', '29.7 µM');

# evaluate next
TGI reported for this compound `CN(C)CCNC(=O)c1cccc2[nH]c(-c3ccccn3)nc12` : > 100 µM
